Test system: rat mixed hippocampal cultures
Experiment: 3-NP neurotoxicity (neuroprotection) assay, MTT endpoint
Type: cell-based
Details: 10 μM agent, 60 minutes incubation, 3 mM 3-NP, compared to 0.1% DMSO vehicle control
measurement_type: Protection vs 3NP (%)

• CCCCCCOc1ccccc1C(N)=O [EXALAMIDE] = 9.19
• Cc1cccc(N(C)C(=S)Oc2ccc3ccccc3c2)c1 [TOLNAFTATE, Tolnaftate] = 66.83
• Fc1ccc(C(c2ccccc2)(c2ccccc2F)n2ccnc2)cc1 (centres unmarked) = 46.85
• Clc1ccc(CSC(Cn2ccnc2)c2ccc(Cl)cc2Cl)cc1 (centres unmarked) [SULCONAZOLE NITRATE, Sulconazole Nitrate] = 18.21
• C[C@@H]1[C@H](O)[C@@H](C)/C=C/C=C/CC/C=C/C=C/C=C/C=C/C(O[C@H]2O[C@H](C)[C@@H](O)[C@H](N)[C@@H]2O)CC2O[C@](O)(CC(O)C(O)CCC(O)CC(O)CC(O)CC(=O)O[C@H]1C)CC(O)C2C(=O)O (some centres unmarked) = 46.72
• CC(=O)OCC(COC(C)=O)OC(C)=O = 45.14
• Clc1ccccc1C(c1ccccc1)(c1ccccc1)n1ccnc1 = 12.57
• Clc1ccc(COC(Cn2ccnc2)c2ccc(Cl)cc2Cl)cc1 (centres unmarked) [ECONAZOLE NITRATE, Econazole Nitrate] = 141.18
